Hey, just so you know, these numbers are from ChEMBL document CHEMBL4665913.

Experiment Summary: Half life in CD1 mouse at 3 mg/kg, iv measured up to 24 hrs by LC-MS/MS analysis
Assay type: ADME, organism-based
Reported Conditions: in vivo

{"Smiles Record": "Cc1cc(-c2nc(C(=O)Nc3cc4oc(N5CCOCC5)nc4nc3N3CC[C@H](O)C3)co2)ccn1", "half-life": "48 min"}
{"Smiles Record": "Cc1cc(-c2nc(C(=O)Nc3cc4oc(N5CCOCC5)nc4nc3N3CC[C@@H](O)C3)co2)ccn1", "half-life": "156 min"}

----------
Experiment Summary: Metabolic stability in rat liver microsomes assessed as parent compound remaining at 1 uM measured upto 60 mins in presence of NADPH by LC-MS/MS analysis
Type: ADME, Microsome
Reported Conditions: read-out: Stabilty
remaining at 1 h, 1 µM by entry:

{"Smiles Record": "Cc1cc(-c2nc(C(=O)Nc3cc4oc(N5CCOCC5)nc4nc3N3CCC(F)CC3)co2)ccn1", "Value Prefix": "=", "remaining at 1 h, 1 µM [%]": 68}
{"Smiles Record": "Cc1cc(-c2nc(C(=O)Nc3cc4oc(N5CCOCC5)nc4nc3N3CC[C@H](O)C3)co2)ccn1", "Value Prefix": ">", "remaining at 1 h, 1 µM [%]": 95}
{"Smiles Record": "Cc1cc(-c2nc(C(=O)Nc3cc4oc(N5CCOCC5)nc4nc3C3CC3)co2)ccn1", "Value Prefix": ">", "remaining at 1 h, 1 µM [%]": 95}
{"Smiles Record": "Cc1cc(-c2nc(C(=O)Nc3cc4oc(N5CCOCC5)nc4nc3N3CC[C@@H](F)C3)co2)ccn1", "Value Prefix": "=", "remaining at 1 h, 1 µM [%]": 95}
{"Smiles Record": "Cc1cc(-c2nc(C(=O)Nc3cc4oc(N5CCOCC5)nc4nc3N3CC[C@@H](O)C3)co2)ccn1", "Value Prefix": ">", "remaining at 1 h, 1 µM [%]": 95}

----------
Experiment Summary: Metabolic stability in mouse liver microsomes assessed as parent compound remaining at 1 uM measured upto 60 mins in presence of NADPH by LC-MS/MS analysis
Type: ADME, Microsome
Reported Conditions: read-out: Stabilty
remaining at 1 h, 1 µM by entry:

{"Compound": "O=C(Nc1cc2oc(N3CCOCC3)nc2nc1C1CC1)c1coc(N2CC[C@H](O)C2)n1", "Value Prefix": ">", "remaining at 1 h, 1 µM [%]": 95}
{"Compound": "Cc1cc(-c2nc(C(=O)Nc3cc4oc(N5CCOCC5)nc4nc3N3CCCC(F)C3)co2)ccn1 (stereo unspecified)", "Value Prefix": "=", "remaining at 1 h, 1 µM [%]": 89}
{"Compound": "Cc1cc(-c2nc(C(=O)Nc3cc4oc(N5CCOCC5)nc4nc3N3CCC(F)CC3)co2)ccn1", "Value Prefix": "=", "remaining at 1 h, 1 µM [%]": 50}
{"Compound": "Cc1cc(-c2nc(C(=O)Nc3cc4oc(N5CCOCC5)nc4nc3N3CCC(O)CC3)co2)ccn1", "Value Prefix": ">", "remaining at 1 h, 1 µM [%]": 95}
{"Compound": "Cc1cc(-c2nc(C(=O)Nc3cc4oc(N5CCOCC5)nc4nc3N3CC[C@H](O)C3)co2)ccn1", "Value Prefix": ">", "remaining at 1 h, 1 µM [%]": 95}
{"Compound": "CCC1(O)CCCN(c2nc3nc(N4CCOCC4)oc3cc2NC(=O)c2coc(-c3ccnc(C)c3)n2)C1 (stereo unspecified)", "Value Prefix": "=", "remaining at 1 h, 1 µM [%]": 91}

----------
Experiment Summary: Half life in dog at 1 mg/kg, iv measured up to 24 hrs by LC-MS/MS analysis
Assay type: ADME, organism-based, Canis lupus familiaris
Reported Conditions: in vivo
Attribute Measured: half-life

{"Smiles Record": "Cc1cc(-c2nc(C(=O)Nc3cc4oc(N5CCOCC5)nc4nc3N3CC[C@@H](O)C3)co2)ccn1", "Observed": "156 min"}

----------
Experiment Summary: Drug concentration in human OCI-LY3 cells xenografted SCID Beige mouse tumor at 100 mg/kg, po administered via gavage for 14 days and measured at 2 hrs post last dose by LC-MS/MS analysis
Assay type: ADME, organism-based, Neoplasm
Reported Conditions: time 14 day, read-out: Ct

{"Smiles Record": "Cc1cc(-c2nc(C(=O)Nc3cc4oc(N5CCOCC5)nc4nc3N3CC[C@@H](O)C3)co2)ccn1", "Measurement Units": "ng/g", "concentration at 336 h": 17900}

----------
Experiment Summary: Drug concentration in human OCI-LY3 cells xenografted SCID Beige mouse tumor at 25 mg/kg, po administered via gavage for 14 days and measured at 2 hrs post last dose by LC-MS/MS analysis
Format: ADME, organism-based, Neoplasm
Reported Conditions: time 14 day, read-out: Ct

{"Smiles Record": "Cc1cc(-c2nc(C(=O)Nc3cc4oc(N5CCOCC5)nc4nc3N3CC[C@@H](O)C3)co2)ccn1", "concentration at 336 h, ng/g": 2670}

----------
Experiment Summary: AUC (0 to t) in dog at 10 mg/kg, po measured up to 24 hrs by LC-MS/MS analysis
Format: ADME, organism-based, Canis lupus familiaris
Set-up: route oral, dose 10 mg/kg, time <=24
Reported Conditions: in vivo

{"Smiles Record": "Cc1cc(-c2nc(C(=O)Nc3cc4oc(N5CCOCC5)nc4nc3N3CC[C@@H](O)C3)co2)ccn1", "Measurement Units": "ng·h/mL", "AUC(0-t) at 24 h": 86500}

----------
Experiment Summary: AUC (0 to t) in Wistar rat at 10 mg/kg, po measured up to 24 hrs by LC-MS/MS analysis
Type: ADME, organism-based
Design: route oral, dose 10 mg/kg, time <=24
Reported Conditions: in vivo
Attribute Measured: AUC(0-t) at 24 h (µg·h/mL)

{"Smiles Record": "Cc1cc(-c2nc(C(=O)Nc3cc4oc(N5CCOCC5)nc4nc3N3CC[C@@H](O)C3)co2)ccn1", "Observed": 171}

----------
Tmax by entry:
Experiment Summary: Tmax in CD1 mouse at 10 mg/kg, po measured up to 24 hrs by LC-MS/MS analysis
Format: ADME, organism-based
Reported Conditions: in vivo
Attribute Measured: Tmax (min)

{"Smiles Record": "Cc1cc(-c2nc(C(=O)Nc3cc4oc(N5CCOCC5)nc4nc3N3CC[C@H](O)C3)co2)ccn1", "Observed": 18}
{"Smiles Record": "Cc1cc(-c2nc(C(=O)Nc3cc4oc(N5CCOCC5)nc4nc3N3CC[C@@H](O)C3)co2)ccn1", "Observed": 30}

----------
Experiment Summary: Initial plasma concentration in Wistar rat at 3 mg/kg, iv by LC-MS/MS analysis
Format: ADME, organism-based

{"Molecule": "Cc1cc(-c2nc(C(=O)Nc3cc4oc(N5CCOCC5)nc4nc3N3CC[C@@H](O)C3)co2)ccn1 [EMAVUSERTIB]", "C0 [ng/mL]": 27700}

----------
Experiment Summary: Oral bioavailability in CD1 mouse at 10 mg/kg measured up to 24 hrs by LC-MS/MS analysis
Format: ADME, organism-based
Reported Conditions: in vivo
Attribute Measured: bioavailability (%)

{"Smiles Record": "Cc1cc(-c2nc(C(=O)Nc3cc4oc(N5CCOCC5)nc4nc3N3CC[C@H](O)C3)co2)ccn1", "Attribute Measured": "bioavailability", "Measurement Units": "%", "Observed": 100}
{"Smiles Record": "Cc1cc(-c2nc(C(=O)Nc3cc4oc(N5CCOCC5)nc4nc3N3CC[C@@H](O)C3)co2)ccn1", "Attribute Measured": "bioavailability", "Measurement Units": "%", "Observed": 71}

----------
Experiment Summary: Drug concentration in human OCI-LY3 cells xenografted SCID Beige mouse plasma at 200 mg/kg, po administered via gavage for 14 days and measured at 2 hrs post last dose by LC-MS/MS analysis
Assay type: ADME, organism-based
Reported Conditions: time 14 day
Attribute Measured: concentration at 336 h

{"Smiles Record": "Cc1cc(-c2nc(C(=O)Nc3cc4oc(N5CCOCC5)nc4nc3N3CC[C@@H](O)C3)co2)ccn1", "Attribute Measured": "concentration at 336 h", "Observed": "39100 ng/mL"}

----------
Experiment Summary: Drug concentration in human OCI-LY3 cells xenografted SCID Beige mouse plasma at 25 mg/kg, po administered via gavage for 14 days and measured at 2 hrs post last dose by LC-MS/MS analysis
Type: ADME, organism-based
Reported Conditions: time 14 day

{"Compound": "Cc1cc(-c2nc(C(=O)Nc3cc4oc(N5CCOCC5)nc4nc3N3CC[C@@H](O)C3)co2)ccn1 [EMAVUSERTIB]", "concentration at 336 h (ng/mL)": 5080}

----------
Experiment Summary: Oral bioavailability in dog at 10 mg/kg measured up to 24 hrs by LC-MS/MS analysis
Type: ADME, organism-based, Canis lupus familiaris
Reported Conditions: in vivo

{"Smiles Record": "Cc1cc(-c2nc(C(=O)Nc3cc4oc(N5CCOCC5)nc4nc3N3CC[C@@H](O)C3)co2)ccn1", "bioavailability / %": 100}
